# target-under-test: T1, Reg1_301-599 (human Regnase-1 amino acids 301 to 599, FLAG tag on the N-terminal side, BirA recognition … (human))
# T1 sequence (Q5D1E8 301-599, looked up): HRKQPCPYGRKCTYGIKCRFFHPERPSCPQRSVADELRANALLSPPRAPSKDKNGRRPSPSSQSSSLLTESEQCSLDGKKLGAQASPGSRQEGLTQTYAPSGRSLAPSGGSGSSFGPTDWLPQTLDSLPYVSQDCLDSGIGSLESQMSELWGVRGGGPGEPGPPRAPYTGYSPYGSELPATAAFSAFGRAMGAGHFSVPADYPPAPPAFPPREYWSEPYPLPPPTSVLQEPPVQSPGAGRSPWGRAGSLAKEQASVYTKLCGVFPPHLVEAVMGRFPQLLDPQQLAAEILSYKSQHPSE
# assay: cell-based or functional assay
Positions of bridges follow the written chain, without caps; N, C: chain ends. Non-standard residues stand in square brackets, D forms with d. No end group written: not given here. NMeA = CN[C@@H](C)C(=O)O; dNMeA = CN[C@H](C)C(=O)O
Below, each of the binders is paired with its reported IC50, phosphorylation by TBK1 value.

The cases that follow already have their IC50, phosphorylation by TBK1 on record.
[NMeA]DIWFDYWDWD (lactam N-11) [PP17] : < 0.06 µM
[NMeA]RFRQWKWVYPD (lactam N-12) [PP13] : 18 µM
[NMeA]NFSNSWYNIWD (lactam N-12) [PP16] : > 62.1 µM
[NMeA]HSNAWYNIWD (lactam N-11) [PP5] : 40.4 µM
[NMeA]TSWYKVNWGQD (lactam N-12) [PP1] : > 62.1 µM
[NMeA]VFYKIWYNWD (lactam N-11) [PP19] : 5.8 µM

What does the data say about its IC50, phosphorylation by TBK1? Entry: [dNMeA]EDTPEDDHD (lactam N-10) [PP25]
16.3 µM

What does the data say about its IC50, phosphorylation by TBK1? Entry: [NMeA]NSWYKIWGLD (lactam N-11) [PP21]
17 µM

What does the data say about its IC50, phosphorylation by TBK1? Entry: [NMeA]KFAQFRWIYPD (lactam N-12) [PP11]
> 62.1 µM

What does the data say about its IC50, phosphorylation by TBK1? Entry: [dNMeA]KHASAWYRIWD (lactam N-12) [PP3]
7.1 µM

Each recorded value in this set is attributed to patent US20220125891A1.
